// endpoint IC50 / system Cholinesterase (Homo sapiens, UniProt P06276)
attribute_measured: IC50 (nM)

> print(dat)
                                smiles.input                             target.system  measure.unit  number
 1  c1cnc2nc3c(c(NCCCCCCCNc4c5c(nc6ncccc46)CCCC5)c2c1)CCCC3  Cholinesterase (Homo sapiens, UniProt P06276)            nM      59
 2  Fc1ccc2c(NCCCCCCNc3c4c(nc5cc(F)ccc35)CCCC4)c3c(nc2c1)CCCC3  Cholinesterase (Homo sapiens, UniProt P06276)            nM      45
 3  c1ccc2c(NCCCCCCNc3c4c(nc5ccccc35)CCCC4)c3c(nc2c1)CCCC3  Cholinesterase (Homo sapiens, UniProt P06276)            nM      83
 4  c1cnc2nc3c(c(NCCCCCCNc4c5c(nc6ncccc46)CCCC5)c2c1)CCCC3  Cholinesterase (Homo sapiens, UniProt P06276)            nM      93
 5  Fc1ccc2c(NCCCCCCCCNc3c4c(nc5cc(F)ccc35)CCCC4)c3c(nc2c1)CCCC3  Cholinesterase (Homo sapiens, UniProt P06276)            nM     164
 6  Fc1ccc2c(NCCCCCCCNc3c4c(nc5cc(F)ccc35)CCCC4)c3c(nc2c1)CCCC3  Cholinesterase (Homo sapiens, UniProt P06276)            nM     257
 7  Clc1ccc2c(NCCCCCCCNc3c4c(nc5cc(Cl)ccc35)CCCC4)c3c(nc2c1)CCCC3  Cholinesterase (Homo sapiens, UniProt P06276)            nM      26
 8  c1ccc2c(NCCCCCCCCNc3c4c(nc5ccccc35)CCCC4)c3c(nc2c1)CCCC3  Cholinesterase (Homo sapiens, UniProt P06276)            nM      53
 9  Clc1ccc2c(NCCCCCCNc3c4c(nc5cc(Cl)ccc35)CCCC4)c3c(nc2c1)CCCC3  Cholinesterase (Homo sapiens, UniProt P06276)            nM     312
10  c1ccc2c(NCCCCCCCNc3c4c(nc5ccccc35)CCCC4)c3c(nc2c1)CCCC3  Cholinesterase (Homo sapiens, UniProt P06276)            nM      54
11  c1ccc2c(NCCCCCCNc3c4c(nc5ccccc35)CCC4)c3c(nc2c1)CCC3  Cholinesterase (Homo sapiens, UniProt P06276)            nM     273
